Biological target: T1, rat α-CGRP (1-37) (rat, C-terminal amide; N-terminal biotin when captured on the SA chip)
T1 construct: also called rat α (1-37); α-rat
T1 peptide: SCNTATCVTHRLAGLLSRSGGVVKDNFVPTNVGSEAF
Experiment: Biacore, 37°C, Fab over CGRP on SA chip
As shown below, each of these binders has a reported pKd value.
When answering, recall that pKd equals minus log10 of the concentration in mol/L, and write that number alone.

The cases that follow already have their pKd on record.
BINDER: G1 variant M66 Fab (Fab, V domains shown, Fab; constant domains as m1; printed L561 read as L56I) VH: EVQLVESGGGLVQPGGSLRLSCAASGFTFSNYWISWVRQAPGKGLEWVAEIRSKSDESATHYAEAVKGRFTISRDNAKNSLYLQMNSLRAEDTAVYYCTVYFDYGLAIQNYWGQGTLVTVSS VL: EIVLTQSPATLSLSPGERATLSCKASKNVGTYVSWYQQKPGQAPRLLIYGASNRYIGIPARFSGSGSGTDFTLTISSLEPEDFAVYYCSQSYNYPYTFGQGTKLEIK
RECORDED ENDPOINT: pKd
NUMERIC READOUT: 6.55

BINDER: G1 variant M5 Fab (Fab, V domains shown, Fab; constant domains as m1) VH: EVQLVESGGGLVQPGGSLRLSCAASGFTFSNYWISWVRQAPGKGLEWVAEIRSESDASATHYAEAVKGRFTISRDNAKNSLYLQMNSLRAEDTAVYYCAYYFDYGLAIQNYWGQGTLVTVSS VL: EIVLTQSPATLSLSPGERATLSCKASKRVTTYVSWYQQKPGQAPRLLIYGASNRYLGIPARFSGSGSGTDFTLTISSLEPEDFAVYYCSQSYNYPYTFGQGTKLEIK
RECORDED ENDPOINT: pKd
NUMERIC READOUT: 7.39

BINDER: G1 variant M71 Fab (Fab, V domains shown, Fab; constant domains as m1; printed L561 read as L56I) VH: EVQLVESGGGLVQPGGSLRLSCAASGFTFSNYWISWVRQAPGKGLEWVAEIRSKSDYSATHYAEAVKGRFTISRDNAKNSLYLQMNSLRAEDTAVYYCTVYFDYGLAIQNYWGQGTLVTVSS VL: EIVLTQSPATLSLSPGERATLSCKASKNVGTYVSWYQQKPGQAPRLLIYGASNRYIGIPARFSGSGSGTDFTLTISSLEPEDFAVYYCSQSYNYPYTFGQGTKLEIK
RECORDED ENDPOINT: pKd
NUMERIC READOUT: 6.93

BINDER: G1 variant M75 Fab (Fab, V domains shown, Fab; constant domains as m1) VH: EVQLVESGGGLVQPGGSLRLSCAASGFTFSNYWISWVRQAPGKGLEWVAEIRSKSDVSATHYAEAVKGRFTISRDNAKNSLYLQMNSLRAEDTAVYYCTVYFDYGLAIQNYWGQGTLVTVSS VL: EIVLTQSPATLSLSPGERATLSCKASKNVGTYVSWYQQKPGQAPRLLIYGASNRYSGIPARFSGSGSGTDFTLTISSLEPEDFAVYYCSQSYNYPYTFGQGTKLEIK
RECORDED ENDPOINT: pKd
NUMERIC READOUT: 5.98

BINDER: G1 variant M20 Fab (Fab, V domains shown, Fab; constant domains as m1) VH: EVQLVESGGGLVQPGGSLRLSCAASGFTFSNYWISWVRQAPGKGLEWVAEIRSESDASATHYAEAVKGRFTISRDNAKNSLYLQMNSLRAEDTAVYYCRLYFDYGLAIQNYWGQGTLVTVSS VL: EIVLTQSPATLSLSPGERATLSCKASKWVTTYVSWYQQKPGQAPRLLIYGASNRYLGIPARFSGSGSGTDFTLTISSLEPEDFAVYYCSQSYNYPYTFGQGTKLEIK
RECORDED ENDPOINT: pKd
NUMERIC READOUT: 7.10

BINDER: G1 variant M61 Fab (Fab, V domains shown, Fab; constant domains as m1) VH: EVQLVESGGGLVQPGGSLRLSCAASGFTFSNYWISWVRQAPGKGLEWVAEIRSQSDNSATFYAEAVKGRFTISRDNAKNSLYLQMNSLRAEDTAVYYCTVYFDYGLAIQNYWGQGTLVTVSS VL: EIVLTQSPATLSLSPGERATLSCKASKNVGTYVSWYQQKPGQAPRLLIYGHSNRYLGIPARFSGSGSGTDFTLTISSLEPEDFAVYYCSQSYNYPYTFGQGTKLEIK
RECORDED ENDPOINT: pKd
NUMERIC READOUT: 6.54

BINDER: G1 variant M73 Fab (Fab, V domains shown, Fab; constant domains as m1) VH: EVQLVESGGGLVQPGGSLRLSCAASGFTFSNYWISWVRQAPGKGLEWVAEIRSKSDNYATHYADAVKGRFTISRDNAKNSLYLQMNSLRAEDTAVYYCTVYFDYGLAIQNYWGQGTLVTVSS VL: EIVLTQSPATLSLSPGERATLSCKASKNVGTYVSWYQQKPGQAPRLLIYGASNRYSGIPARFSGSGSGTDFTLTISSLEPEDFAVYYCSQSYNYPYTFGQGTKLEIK
RECORDED ENDPOINT: pKd
NUMERIC READOUT: 6.78

BINDER: G1 variant M26 Fab (Fab, V domains shown, Fab; constant domains as m1) VH: EVQLVESGGGLVQPGGSLRLSCAASGFTFSNYWISWVRQAPGKGLEWVAEIRSESDGSATHYAEAVKGRFTISRDNAKNSLYLQMNSLRAEDTAVYYCTVYFDYGLAIQNYWGQGTLVTVSS VL: EIVLTQSPATLSLSPGERATLSCKASKNVTTYVSWYQQKPGQAPRLLIYGASNRYLGIPARFSGSGSGTDFTLTISSLEPEDFAVYYCSQSYNYPYTFGQGTKLEIK
RECORDED ENDPOINT: pKd
NUMERIC READOUT: 7.29

BINDER: G1 variant M77 Fab (Fab, V domains shown, Fab; constant domains as m1) VH: EVQLVESGGGLVQPGGSLRLSCAASGFTFSNYWISWVRQAPGKGLEWVAEIRSKSDDSATHYAEAVKGRFTISRDNAKNSLYLQMNSLRAEDTAVYYCTVYFDYGLAIQNYWGQGTLVTVSS VL: EIVLTQSPATLSLSPGERATLSCKASKNVSTYVSWYQQKPGQAPRLLIYAASNRYTGIPARFSGSGSGTDFTLTISSLEPEDFAVYYCSQSYNYPYTFGQGTKLEIK
RECORDED ENDPOINT: pKd
NUMERIC READOUT: 6.10

Please turn your attention to the following entry.
State its pKd for this binder: G1 variant M24 Fab (Fab, V domains shown, Fab; constant domains as m1) VH: EVQLVESGGGLVQPGGSLRLSCAASGFTFSNYWISWVRQAPGKGLEWVAEIRSESDASATHYAEAVKGRFTISRDNAKNSLYLQMNSLRAEDTAVYYCTVYFDYGLAIQNYWGQGTLVTVSS VL: EIVLTQSPATLSLSPGERATLSCKASKLVTTYVSWYQQKPGQAPRLLIYGASNRYLGIPARFSGSGSGTDFTLTISSLEPEDFAVYYCSQSYNYPYTFGQGTKLEIK
7.24
